Biological target: IKZF2 (Homo sapiens (Human), UniProt Q96SW2+Q9UKS7)
Sequence (Q9UKS7 whole entry): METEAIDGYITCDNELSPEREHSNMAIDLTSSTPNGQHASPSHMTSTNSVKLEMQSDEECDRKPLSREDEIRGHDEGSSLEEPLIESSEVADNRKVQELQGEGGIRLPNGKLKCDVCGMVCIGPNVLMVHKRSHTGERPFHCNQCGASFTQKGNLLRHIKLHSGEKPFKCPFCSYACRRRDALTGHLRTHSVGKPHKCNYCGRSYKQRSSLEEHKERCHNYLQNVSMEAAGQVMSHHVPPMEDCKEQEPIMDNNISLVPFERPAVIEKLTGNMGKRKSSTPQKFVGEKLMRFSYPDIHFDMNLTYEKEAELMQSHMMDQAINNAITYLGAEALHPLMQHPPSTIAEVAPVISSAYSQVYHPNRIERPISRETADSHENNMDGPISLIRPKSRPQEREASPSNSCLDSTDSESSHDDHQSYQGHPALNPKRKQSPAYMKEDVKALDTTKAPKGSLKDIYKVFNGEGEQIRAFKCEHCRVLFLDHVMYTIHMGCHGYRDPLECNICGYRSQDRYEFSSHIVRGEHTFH
Sequence (Q96SW2 whole entry): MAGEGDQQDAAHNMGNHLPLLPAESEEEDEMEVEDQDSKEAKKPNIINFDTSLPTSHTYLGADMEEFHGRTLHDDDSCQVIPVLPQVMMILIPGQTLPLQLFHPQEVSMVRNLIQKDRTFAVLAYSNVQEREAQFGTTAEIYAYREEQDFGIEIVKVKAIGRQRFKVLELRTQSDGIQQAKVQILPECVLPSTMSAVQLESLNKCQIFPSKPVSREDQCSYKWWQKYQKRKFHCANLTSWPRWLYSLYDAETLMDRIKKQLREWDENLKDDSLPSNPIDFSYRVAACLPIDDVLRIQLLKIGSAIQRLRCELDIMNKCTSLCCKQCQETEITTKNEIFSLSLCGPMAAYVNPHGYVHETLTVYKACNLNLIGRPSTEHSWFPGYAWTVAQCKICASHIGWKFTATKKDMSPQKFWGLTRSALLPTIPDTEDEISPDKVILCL
Sequence (Q16531 whole entry partner): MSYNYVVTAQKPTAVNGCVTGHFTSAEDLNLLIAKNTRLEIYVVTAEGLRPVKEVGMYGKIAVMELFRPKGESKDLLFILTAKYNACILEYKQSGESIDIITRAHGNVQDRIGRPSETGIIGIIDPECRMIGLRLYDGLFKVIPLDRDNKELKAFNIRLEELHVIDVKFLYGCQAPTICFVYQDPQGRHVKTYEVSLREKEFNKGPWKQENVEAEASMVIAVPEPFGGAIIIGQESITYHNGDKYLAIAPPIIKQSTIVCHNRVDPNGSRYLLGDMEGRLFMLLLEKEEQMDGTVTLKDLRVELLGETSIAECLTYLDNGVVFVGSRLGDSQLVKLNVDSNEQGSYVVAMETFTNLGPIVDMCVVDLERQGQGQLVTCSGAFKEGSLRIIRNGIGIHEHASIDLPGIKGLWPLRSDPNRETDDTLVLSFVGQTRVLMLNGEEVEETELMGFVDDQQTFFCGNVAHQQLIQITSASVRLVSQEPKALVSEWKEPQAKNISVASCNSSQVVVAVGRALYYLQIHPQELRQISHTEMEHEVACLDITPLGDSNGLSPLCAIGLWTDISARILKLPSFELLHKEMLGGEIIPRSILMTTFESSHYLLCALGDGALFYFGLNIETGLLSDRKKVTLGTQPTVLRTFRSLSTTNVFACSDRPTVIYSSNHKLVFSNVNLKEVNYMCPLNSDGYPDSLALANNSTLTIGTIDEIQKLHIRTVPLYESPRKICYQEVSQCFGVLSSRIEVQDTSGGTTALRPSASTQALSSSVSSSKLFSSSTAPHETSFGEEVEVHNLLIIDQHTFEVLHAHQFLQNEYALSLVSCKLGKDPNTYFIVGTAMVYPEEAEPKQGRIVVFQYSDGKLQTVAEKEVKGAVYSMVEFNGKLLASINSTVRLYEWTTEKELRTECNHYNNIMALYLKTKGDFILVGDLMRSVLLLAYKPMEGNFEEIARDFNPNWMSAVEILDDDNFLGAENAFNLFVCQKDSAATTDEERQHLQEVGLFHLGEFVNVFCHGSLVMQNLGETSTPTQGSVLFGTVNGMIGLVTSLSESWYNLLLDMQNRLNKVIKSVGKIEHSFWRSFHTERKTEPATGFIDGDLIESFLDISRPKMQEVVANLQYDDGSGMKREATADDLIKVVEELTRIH
Assay: IKZF2 HiBiT Assay (Jurkat-IKZF2-HiBiT cell line)
Format: cell-based
Conditions: Jurkat-IKZF2-HiBiT cells, 24 hours; read-out: HiBit assay degradation analysis Dmax
quantityKind: Dmax

Study these solved cases before continuing.
O=C1CCC(N2Cc3c(ccc4c3OCC43CCN(Cc4c[nH]c(-c5ccccc5)n4)CC3)C2=O)C(=O)N1 (stereo not drawn) :: 40 to 60%
Cn1cc(CN2CCC3(CC2)COc2c3ccc3c2CN(C2CCC(=O)NC2=O)C3=O)c(-c2ccccc2)n1 (stereo not drawn) :: < 40%
CO[C@H]1C[C@H](n2cc(-c3cccc(CN4CCC5(CC4)COc4c5ccc5c4CN([C@H]4CCC(=O)NC4=O)C5=O)c3)cn2)C1 :: 60 to 80%

Item COCc1cccc(CN2CCC3(CC2)COc2c3ccc3c2CN(C2CCC(=O)NC2=O)C3=O)c1 (stereo not drawn) ; assay system IKZF2 (Homo sapiens (Human), UniProt Q96SW2+Q9UKS7); Dmax reported as 60 to 80%

Item O=C1CCC(N2Cc3c(ccc4c3OCC43CCN(Cc4ccc(C5CC5)cc4)CC3)C2=O)C(=O)N1 (stereo not drawn) ; assay system IKZF2 (Homo sapiens (Human), UniProt Q96SW2+Q9UKS7); Dmax reported as 40 to 60%

Item O=C1CCC(N2Cc3c(ccc4c3OCC43CCN(Cc4cncc(Cl)c4)CC3)C2=O)C(=O)N1 (stereo not drawn) ; assay system IKZF2 (Homo sapiens (Human), UniProt Q96SW2+Q9UKS7); Dmax reported as < 40%

Item O=C1CCC(N2Cc3c(ccc4c3OCC43CCN(CC4Cc5ccccc5C4)CC3)C2=O)C(=O)N1 (stereo not drawn) ; assay system IKZF2 (Homo sapiens (Human), UniProt Q96SW2+Q9UKS7); Dmax reported as < 40%

Item O=C1CCC(N2Cc3c(ccc4c3OCC43CCN(CC4CCN(c5ccccc5)C4)CC3)C2=O)C(=O)N1 (stereo not drawn) ; assay system IKZF2 (Homo sapiens (Human), UniProt Q96SW2+Q9UKS7); Dmax reported as 40 to 60%

Item O=C1CCC(N2Cc3c(ccc4c3OCC43CCN(Cc4ccc(F)cc4Cl)CC3)C2=O)C(=O)N1 (stereo not drawn) ; assay system IKZF2 (Homo sapiens (Human), UniProt Q96SW2+Q9UKS7); Dmax reported as < 40%

====

Target: IKZF2 (Homo sapiens (Human), UniProt Q96SW2+Q9UKS7)
Assay: IKZF2 HiBiT Assay (Jurkat-IKZF2-HiBiT cell line)
Format: cell-based
Settings: Jurkat-IKZF2-HiBiT cells, 24 hours; read-out: HiBit assay degradation analysis Dmax
quantityKind: Dmax

Study these solved cases before continuing.
O=C1CCC(N2Cc3c(ccc4c3OCC43CCN(Cc4nccc5ccccc45)CC3)C2=O)C(=O)N1 (stereo not shown) [Compound A42] :: < 40%
O=C1CCC(N2Cc3c(ccc4c3OCC43CCN(Cc4ccc5c(c4)NC(=O)CO5)CC3)C2=O)C(=O)N1 (stereo not shown) [Compound A153] :: 60 to 80%
O=C1CCC(N2Cc3c(ccc4c3OCC43CCN(Cc4cncc5ccccc45)CC3)C2=O)C(=O)N1 (stereo not shown) [Compound A43] :: 40 to 60%

--- query ---
// Dmax lookup, compound = O=C1CCC(N2Cc3c(ccc4c3OCC43CCN(Cc4ccc5c(Cl)n[nH]c5c4)CC3)C2=O)C(=O)N1 (stereo not shown) [Compound A142] , result: 60 to 80%
